Could you please report measured IC50 for the items listed next?
Molecular target: Human recombinant PDE3A (hPDE3A) (Homo sapiens)
Construct: purchased Scottish Biomedical; host or cells: Sf9 insect cells
Sequence (Q14432 whole entry): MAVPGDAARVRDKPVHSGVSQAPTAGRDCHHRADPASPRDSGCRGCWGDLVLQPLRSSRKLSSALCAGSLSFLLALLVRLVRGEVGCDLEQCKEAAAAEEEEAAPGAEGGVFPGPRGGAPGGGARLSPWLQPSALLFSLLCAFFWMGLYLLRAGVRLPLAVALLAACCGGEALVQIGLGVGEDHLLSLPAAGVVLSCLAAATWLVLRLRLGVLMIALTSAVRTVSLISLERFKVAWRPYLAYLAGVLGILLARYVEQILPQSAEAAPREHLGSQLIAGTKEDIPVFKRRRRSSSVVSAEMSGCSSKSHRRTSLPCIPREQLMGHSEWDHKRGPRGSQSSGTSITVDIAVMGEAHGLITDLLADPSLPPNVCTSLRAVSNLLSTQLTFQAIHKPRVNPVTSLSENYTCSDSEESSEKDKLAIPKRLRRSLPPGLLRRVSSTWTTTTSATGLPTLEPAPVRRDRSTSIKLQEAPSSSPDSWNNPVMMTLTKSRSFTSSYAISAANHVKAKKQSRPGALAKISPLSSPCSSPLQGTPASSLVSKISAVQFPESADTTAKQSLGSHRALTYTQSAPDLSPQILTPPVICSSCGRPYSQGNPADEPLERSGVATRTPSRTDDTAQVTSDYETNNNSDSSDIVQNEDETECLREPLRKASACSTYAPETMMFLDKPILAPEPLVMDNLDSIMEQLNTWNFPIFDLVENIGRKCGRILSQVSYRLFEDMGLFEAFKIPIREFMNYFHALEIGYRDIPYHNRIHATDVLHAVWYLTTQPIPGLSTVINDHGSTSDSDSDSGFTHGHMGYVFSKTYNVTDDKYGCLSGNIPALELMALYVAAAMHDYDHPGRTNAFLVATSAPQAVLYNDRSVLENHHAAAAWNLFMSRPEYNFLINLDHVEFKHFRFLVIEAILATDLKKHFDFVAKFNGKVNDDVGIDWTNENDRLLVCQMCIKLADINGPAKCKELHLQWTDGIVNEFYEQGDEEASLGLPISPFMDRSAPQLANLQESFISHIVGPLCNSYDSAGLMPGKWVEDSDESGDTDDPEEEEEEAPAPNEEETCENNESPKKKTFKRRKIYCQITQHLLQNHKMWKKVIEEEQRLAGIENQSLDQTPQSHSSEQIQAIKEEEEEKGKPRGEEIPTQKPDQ
Assay: In vitro assay PDE3A (SPA, 3H-cAMP hydrolysis);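 also: the method names PDE3A and the table heading PDE3B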
Type: biochemical
Conditions: hPDE3B pIC50; read-out: pIC50 (converted)

[
  {
    "COMPOUND": "C[C@@H]1CCN(C(=O)c2ccncc2N)C[C@H]1c1cc(C(F)F)nc2ncnn12",
    "IC50": "> 10 µM"
  }
]

Quick batch: IC50 for everything below.
1. CC(=O)N1CCc2cc(C(=O)N3CCC[C@@](C)(c4cc(C(F)F)nc5ncnn45)C3)ccc21 (single isomer, unassigned)
2. C[C@@H]1CCN(C(=O)c2ncccc2C(F)(F)F)C[C@H]1c1cc(C(F)F)nc2ncnn12
3. Cc1cc(C(=O)N2[C@H]3CC[C@H](c4cc(C(F)F)nc5ncnn45)[C@@H]2CC3)c(F)cn1
4. C[C@@H]1CCN(C(=O)c2ncc[nH]2)C[C@H]1c1cc(C(F)F)nc2ncnn12
5. C[C@]1(c2cc(C(F)F)nc3ncnn23)CCCN(C(=O)c2ccc3occc3c2)C1 (single isomer, unassigned)
6. C[C@@H]1CCN(C(=O)c2cccc3ocnc23)C[C@H]1c1cc(C(F)F)nc2ncnn12
7. O=C(c1cc2n(n1)CCO2)N1[C@H]2CC[C@H](c3cc(C(F)F)nc4ncnn34)[C@@H]1CC2

a:
> 10 µM
> 10 µM
> 10 µM
> 10 µM
> 10 µM
> 10 µM
> 10 µM

Quick batch: IC50 for everything below.
1. CCCOc1cccnc1C(=O)N1CC[C@@H](C)[C@H](c2cc(C(F)F)nc3ncnn23)C1
2. Cc1ccc(F)c(C(=O)N2CC[C@@H](C)[C@@H](c3cc(C(F)F)nc4ncnn34)C2)n1
3. C[C@@H]1CCN(C(=O)c2cccc(C#N)c2)C[C@H]1c1cc(C(F)F)nc2ncnn12
4. Cc1nc(C(=O)N2CC[C@@H](C)[C@H](c3cc(C(F)F)nc4ncnn34)C2)c(C(F)(F)F)o1
5. Cc1cc(C)cc(C(=O)N2CC[C@@H](C)[C@H](c3cc(C(F)F)nc4ncnn34)C2)c1

a:
1: > 10 µM; 2: > 10 µM; 3: > 10 µM; 4: > 10 µM; 5: 1.62 µM

Quick batch: IC50 for everything below.
1. Cc1cc(C(=O)N2[C@H]3CC[C@@H]2[C@H](c2cc(C(F)F)nc4ncnn24)CC3)cc(C2CC2)n1
2. C[C@@H]1CCN(C(=O)c2cc3n(n2)CCO3)C[C@H]1c1cc(C(F)F)nc2ncnn12

a:
1: > 10 µM; 2: > 10 µM

Quick batch: IC50 for everything below.
1. C[C@@H]1CCN(C(=O)c2noc3ccccc23)C[C@H]1c1cc(C(F)F)nc2ncnn12
2. Cc1c(C(=O)N2CC[C@@H](C)[C@H](c3cc(C(F)F)nc4ncnn34)C2)sc2ccccc12
3. Cc1oncc1C(=O)N1CC[C@@H](C)[C@H](c2cc(C(F)F)nc3ncnn23)C1

a:
["3.47 µM", "0.0617 µM", "> 10 µM"]

====

Target: Human recombinant PDE10A (hPDE10A) (Homo sapiens)
Construct: His tag (inferred from metal chelate purification); made in house; host or cells: Sf9 insect cells (baculovirus)
Sequence (Q9Y233 267-1055): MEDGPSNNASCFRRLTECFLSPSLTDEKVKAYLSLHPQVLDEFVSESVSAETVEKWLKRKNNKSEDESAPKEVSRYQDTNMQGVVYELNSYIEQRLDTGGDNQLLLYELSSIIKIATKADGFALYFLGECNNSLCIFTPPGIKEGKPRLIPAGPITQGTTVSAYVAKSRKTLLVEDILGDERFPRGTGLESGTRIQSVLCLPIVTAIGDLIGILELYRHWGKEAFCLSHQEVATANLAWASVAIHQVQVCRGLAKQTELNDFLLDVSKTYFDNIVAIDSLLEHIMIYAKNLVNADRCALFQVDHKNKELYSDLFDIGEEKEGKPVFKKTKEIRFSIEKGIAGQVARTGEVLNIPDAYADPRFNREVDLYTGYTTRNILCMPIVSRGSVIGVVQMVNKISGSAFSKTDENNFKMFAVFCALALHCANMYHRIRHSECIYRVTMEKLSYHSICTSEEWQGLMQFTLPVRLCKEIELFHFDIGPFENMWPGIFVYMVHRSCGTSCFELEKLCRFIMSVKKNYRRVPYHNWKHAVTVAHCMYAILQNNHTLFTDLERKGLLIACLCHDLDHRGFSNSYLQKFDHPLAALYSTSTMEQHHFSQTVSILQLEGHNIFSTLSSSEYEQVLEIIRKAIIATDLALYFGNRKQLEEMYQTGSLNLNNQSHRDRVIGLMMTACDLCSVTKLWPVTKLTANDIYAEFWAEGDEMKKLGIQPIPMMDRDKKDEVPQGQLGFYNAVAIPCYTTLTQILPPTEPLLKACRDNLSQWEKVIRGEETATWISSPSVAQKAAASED
Assay: In vitro assay PDE10A, human clone (SPA, 3H-cAMP hydrolysis)
Assay type: biochemical
Details: human clone (h), default; read-out: hPDE10A2 Emax
OBSERVATION_TYPE: Emax (%)
Numbers only, in %.

# example entries with known answers
[
  {
    "COMPOUND": "Cc1cc(C(=O)N2[C@H]3CC[C@H](c4cc(C(F)F)nc5ncnn45)[C@@H]2CC3)cc(C)n1 [Compound 29]",
    "SYSTEM_TESTED": "Human recombinant PDE10A (hPDE10A) (Homo sapiens)",
    "Emax (%)": 90
  },
  {
    "COMPOUND": "Cc1cc(C)cc(C(=O)N2CCC[C@](C)(c3cc(C(F)F)nc4ncnn34)C2)c1 (single isomer, unassigned) [Compound 206]",
    "SYSTEM_TESTED": "Human recombinant PDE10A (hPDE10A) (Homo sapiens)",
    "Emax (%)": 16
  }
]

Quick batch: Emax for everything below.
1. C[C@@H]1CCN(C(=O)c2nccnc2N)C[C@H]1c1cc(C(F)F)nc2ncnn12 [Compound 261]
2. C[C@@H]1CCN(C(=O)c2ccc3cc[nH]c3c2)C[C@H]1c1cc(C(F)F)nc2ncnn12 [Compound 106]

a:
1. 45
2. 99
